test system: GBM6138; assay: Antiproliferative activity, MTT assay, GBM6138; assay type: cell-based; details: low-passage glioblastoma GBM6138, 72 h
Flag rule - IC50 less than 100 µM flags yes (1); the remaining entries get no (0).

{"GIVEN_SMILES": "COc1cccc(NC(=O)CSc2nc(N3CCNCC3)c3c(c2C#N)CC(C)(C)OC3)c1", "ASSIGNED_CLASS": "no (0)"}
{"GIVEN_SMILES": "CC1(C)Cc2c(C#N)c(SCC(N)=O)nc(N3CCNCC3)c2CO1", "ASSIGNED_CLASS": "no (0)"}
{"GIVEN_SMILES": "CC(=O)c1ccc(NC(=O)CSc2nc(N3CCNCC3)c3c(c2C#N)CC(C)(C)OC3)cc1", "ASSIGNED_CLASS": "yes (1)"}

Ask: Field: below-cutoff. Rule: recorded IC50 strictly less than 100 µM. Subject: CC1(C)Cc2c(C#N)c(SCc3ccccc3Cl)nc(N3CCNCC3)c2CO1
Result: yes (1)

Ask: Field: below-cutoff. Rule: recorded IC50 strictly less than 100 µM. Subject: COc1ccccc1NC(=O)CSc1nc(N2CCNCC2)c2c(c1C#N)CC(C)(C)OC2
Result: yes (1)
